Subject of test: T1, HLA-A*0201 (human)
T1 construct: also called HLA-A2.1; HLA A2.1
Assay overview: iTopia net score;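 further: combined score from peptide binding, ED₅₀ and half-life of peptide complexes with plate-bound HLA-A2 molecules, computed by a proprietary formula in iTopia software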
Experimental readout: iScore

In [3]: df
Out[3]:
                               binder    val
0  TVTMLQAQL [cdr2 201-209 TVTMLQAQL]  0.132

Sample QSLLEEMFL [cdr2 288-296 QSLLEEMFL] ; iScore observed: 0.178

Sample ASQQKILSL [cdr2 107-113 ASQQKILSL] ; iScore observed: 0.174

Sample DSLSHKAVQ [cdr2 372-380 DSLSHKAVQ] ; iScore observed: 0.262
